Target: GST-JAK2(808-1132) (Homo sapiens)
Construct: GST-JAK2(808-1132); purchased Invitrogen (Carlsbad, USA) #4288
Sequence (O60674 808-1132): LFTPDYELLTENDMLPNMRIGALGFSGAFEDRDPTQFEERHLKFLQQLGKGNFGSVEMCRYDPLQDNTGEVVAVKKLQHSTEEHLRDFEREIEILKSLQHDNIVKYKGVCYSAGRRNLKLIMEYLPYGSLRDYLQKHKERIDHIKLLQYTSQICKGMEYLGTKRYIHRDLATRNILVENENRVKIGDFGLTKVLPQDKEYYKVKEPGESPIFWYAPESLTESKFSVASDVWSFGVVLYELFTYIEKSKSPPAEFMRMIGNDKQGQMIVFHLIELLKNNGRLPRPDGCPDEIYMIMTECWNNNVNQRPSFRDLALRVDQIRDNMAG
Assay: JAK2 kinase assay (Caliper mobility shift, LabChip 3000)
Type: biochemical
Measured endpoint: IC50

| Compound | IC50 |
| --- | --- |
| O=C(c1c(F)cc(-n2ccc3cnc(Nc4ccc(N5CCN(CCO)CC5)nc4)nc32)cc1F)N1CCOCC1 | < 3 nM |
| C[C@@H]1CN(c2ccc(Nc3ncc4ccn(-c5cc(F)c(CN6CCOC7(COC7)C6)c(F)c5)c4n3)cn2)C[C@H](C)N1 | 3.3 nM |
| Cc1cc(-n2ccc3cnc(Nc4ccc(OC(C)C)cc4)nc32)ccc1C(=O)N1CCOCC1 | < 3 nM |
| CN1CCC(c2ccc(Nc3ncc4ccn(-c5ccc(S(C)(=O)=O)cc5)c4n3)cc2)CC1 | < 3 nM |
| CN(C)CCNC(=O)c1ccc(Nc2ncc3ccn(-c4ccc(S(C)(=O)=O)cc4)c3n2)cc1 | < 3 nM |
| CCN1CCOC[C@@H]1c1ccc(Nc2ncc3ccn(-c4cc(F)c(CN5CCOCC5)c(F)c4)c3n2)cc1 | 4.1 nM |

# context switch: different compound, same IC50
[in] IC50 for CS(=O)(=O)c1ccc(-n2ccc3cnc(Nc4ccc(C5CCCN5)cc4)nc32)cc1 (stereo not shown) ?
[out] < 3 nM
